System: MDA-MB-468 breast
Test: NCI tumour cell line growth inhibition, 48 h
Record form. Attribute: TGI. Fill in for each entry.
Only the number, expressed in µM, is required.

Query: If you can, please state the reported TGI value of `CCOC(=O)c1c2c(n3cccc(F)c13)C(=O)c1ncccc1C2=O` .
Result: 9.68

Query: If you can, please state the reported TGI value of `N=C(N)c1ccc(-c2ccc(-c3ccco3)o2)cc1F` .
Result: 3.41

Query: If you can, please state the reported TGI value of `Cc1cccc2c(=O)c3c(sc12)c(NCCN)nc1ccccc13` .
Result: 1.58

Query: If you can, please state the reported TGI value of `COC(=O)c1cccc(NC2=C(Cl)C(=O)c3nc(C)ccc3C2=O)c1` .
Result: 3.28

Query: If you can, please state the reported TGI value of `NNc1nc(-c2ccccn2)nc2sc3c(c12)CCCCCC3` .
Result: 31.7

Query: If you can, please state the reported TGI value of Cn1cc(C2=C(c3cccc(NCC(O)CO)c3)C(=O)NC2=O)c2cc(Cl)ccc21 (stereo unspecified) .
Result: 8.43

---

Test system: MDA-MB-468 breast
Assay: NCI tumour cell line growth inhibition, 48 h; in the data active means GI50 below about 0.43 µM; inactive means the rest
// one of active, inactive, no free text

Query: Please indicate how the test categorized `C#CCOc1c(OC)cc(C(=O)/C(C)=C/c2cccc(N=[N+]=[N-])c2)cc1OC` .
Result: active

Query: Please indicate how the test categorized `CCC1=C[C@H]2CN(CCc3c([nH]c4ccccc34)[C@@](C(=O)OC)(c3cc4c(cc3OC)N(C)[C@H]3[C@@](O)(C(=O)OC)[C@H](OC(C)=O)[C@]5(CC)[C@@H]6C[C@@H]6CN6CC[C@]43[C@@H]65)C2)C1` .
Result: active

Query: Please indicate how the test categorized `N=c1c2c(=O)n3c(nc2nc2sc4ccc(Cl)cc4n12)-c1ccccc1Sc1ccccc1-3` .
Result: inactive

Query: Please indicate how the test categorized `NNc1nc(-c2ccccn2)nc2sc3c(c12)CCCCCC3` .
Result: inactive

Query: Please indicate how the test categorized CCN(CC)CCCC(C)Nc1ccnc2cc(Cl)c(SCc3ccccc3)cc12 (stereo unspecified) .
Result: inactive

Query: Please indicate how the test categorized `CCNCCNc1cc(C2CCCC2)c(C#N)c2nc3ccccc3n12` .
Result: inactive

Query: Please indicate how the test categorized `Fc1ccc(-c2cc3nc(C(Cl)Cl)nc(-c4ccccc4)n3n2)cc1` .
Result: active

Query: Please indicate how the test categorized `Cc1ccc(S(=O)(=O)c2nc(-c3ccccc3)oc2S(=O)(=O)CC(=O)N2CCCC2)cc1` .
Result: inactive

Query: Please indicate how the test categorized `O=CNc1ccc2c(c1)Cc1cc([N+](=O)[O-])ccc1-2` .
Result: inactive

Query: Please indicate how the test categorized `CC(=O)/C=C/c1ccc(N(C)Cc2ccc(C(C)(C)C)cc2)cc1` .
Result: inactive

Query: Please indicate how the test categorized `O=C(Nc1cccc2ccccc12)c1cc2ccccc2cc1O` .
Result: inactive

Query: Please indicate how the test categorized `COc1ccc(-c2oncc2-c2cc(OC)c3c(c2)OCO3)cc1` .
Result: inactive

Query: Please indicate how the test categorized N=C1N=Nc2nc(C3(c4nc5n(c4O)C(=N)N=N5)Cc4ccccc4C3=O)c(O)n21 (stereo unspecified) .
Result: inactive

Query: Please indicate how the test categorized `Cc1ccc(S(=O)(=O)N2C/C(=C\c3cc(F)cc(F)c3)C(=O)/C(=C/c3cc(F)cc(F)c3)C2)cc1` .
Result: active

Query: Please indicate how the test categorized `Cc1cc(Cl)ccc1Nc1nc(C(F)(F)F)ccc1C(=O)N/N=C/c1ccc(F)cc1` .
Result: inactive

Query: Please indicate how the test categorized `CCCNNC(=O)c1ccc(CNC(=O)/C=C/c2ccccc2)cc1` .
Result: active
